Test: qHTS for differential inhibitors of proliferation of Plasmodium falciparum line W2 (AID 1883);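 also: parasites grown with compound for 72 h before lysis and staining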
Conditions: Plasmodium falciparum W2 proliferation inhibition; series mostly up to 28.7 µM
Records with an inconclusive call do not appear. Activity calls are given as the source filed them. Calls follow the shape of the dose curve; as a rule, active = well fitted curve in the direction sought with a large enough effect; inconclusive = small, poorly fitted or top-dose-only effect, or another doubt; inactive = no such curve, though single readings can be large or run the other way.
Valid outcomes are listed here; reply with one: yes (1) = active, no (0) = inactive

### Prompt Which outcome did this test record for the compound CCC(C)N(C)C(=O)c1cc2ccccc2c(-c2ccccc2Cl)n1 (configuration not stated) ?
### Response yes (1)

---

Test: qHTS profiling of the MIPE4 collection as inhibitors of Plasmodium falciparum (DD2) proliferation (Rep 2) (AID 743346)
Conditions: P. falciparum Dd2 in erythrocytes, SYBR Green DNA, 72 h; at 28.5 µM (top of the series) unless noted
Procedure: Plasmodium falciparum is a virulent malarial parasite that kills 1-2 million people worldwide each year. […] Because mature erythrocytes lack DNA, only Plasmodium-derived DNA is detected. The SYBR Green viability assay was adapted from a method described previously (Plouffe et al., 2008). […] The following morning, fluorescence intensity at 485(14) nm excitation and 535(25) nm emission wavelengths was measured on an EnVision (Perkin Elmer) plate reader. […]
MEASUREMENT TYPE: parasite growth, % of control (lower = inhibition)

// worked examples, parasite growth, % of control (lower = inhibition) included
COMPOUND: c1ccc(-c2nn3c(c2-c2ccnc4cc(OCCN5CCOCC5)ccc24)CCC3)nc1
REPORTED VALUE: 58.7%
//
COMPOUND: CCN(CC)CCCC(C)Nc1ccnc2cc(Cl)ccc12 (stereo unspecified)
REPORTED VALUE: 15.1%

For every record below, what is its parasite growth, % of control (lower = inhibition)?
1. Cn1cnc2c(F)c(Nc3ccc(Br)cc3Cl)c(C(=O)NOCCO)cc21
2. O=C(Nc1ccc(F)c(C(F)(F)F)c1)Nc1nnc(-c2ccncc2)s1

### Response
57.1%
25.2%

---

Experiment: S16 Schwann cell PMP22 intronic element firefly luciferase assay (AID 624032);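 also: plate controls were DMSO for no effect and PTC124 positive control mean for full effect; nearly all actives have a fitted effect of over 30% in size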
Conditions: S16 rat Schwann cells, PMP22 element FLuc, 24 h; series mostly up to 57.5 µM
Results filed as inconclusive are left out. The source made the active and inactive calls. The call rests on the fitted dose curve; in most records, active means well fitted inhibition curve with a large enough effect; inconclusive means small, poorly fitted or top-dose-only effect; inactive means no such curve, though single readings can be large or run the other way.
MEASUREMENT TYPE: outcome

COMPOUND: NC(N)=NC(=O)c1nc(Cl)c(N)nc1N
MEASUREMENT TYPE: outcome
REPORTED VALUE: inactive

COMPOUND: CN1CCN(CCCN2c3ccccc3Sc3ccc(C(F)(F)F)cc32)CC1
MEASUREMENT TYPE: outcome
REPORTED VALUE: inactive

COMPOUND: CCc1ccc(CCOc2ccc(CC3SC(=O)NC3=O)cc2)nc1 (stereo not drawn)
MEASUREMENT TYPE: outcome
REPORTED VALUE: inactive

---

Experiment: qHTS for small molecule inhibitors of Yes1 kinase: Counter Assay (AID 686950);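 also: no kinase present so only ADP-Glo detection of a fixed ADP amount is tested; luminescence from ADP-Glo reporting ADP in a fixed ATP and ADP mixture; 0% = DMSO wells with ATP plus ADP and -100% = ATP-only wells without ADP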
Details: series mostly up to 76.9 µM
Calls of active or inactive are those of the source. The call rests on the fitted dose curve; in most records, active means well fitted curve in the direction sought with a large enough effect; inactive means no such curve, though single readings can be large or run the other way.
MEASUREMENT TYPE: outcome

COMPOUND: Clc1ccc(Nc2nnc(Cc3ccncc3)c3ccccc23)cc1
REPORTED VALUE: inactive

COMPOUND: CNC(=O)c1ccc(N2C(=S)N(c3ccc(C#N)c(C(F)(F)F)c3)C(=O)C2(C)C)cc1F
REPORTED VALUE: inactive

COMPOUND: COc1ccc(CC2=NN3C([C@@H](CCc4ccccc4)[C@@H](C)O)=NC(C)C3C(=O)N2)cc1OC (stereo partly drawn)
REPORTED VALUE: inactive

---

Assay: qHTS of pediatric cancer cell lines to identify multiple opportunities for drug repurposing: Primary screen for SJ-GBM2 cells (AID 1347091);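 also: plate controls were DMSO neutral control for no effect and bortezomib for full effect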
Conditions: SJ-GBM2 viability, CellTiter-Glo luminescence, 48 h; series mostly up to 46 µM
Records with an inconclusive call do not appear. Activity calls are given as the source filed them. The call rests on the fitted dose curve; in most records, active means well fitted cell-killing curve with a large enough effect; inconclusive means small, poorly fitted or top-dose-only effect; inactive means no such curve, though single readings can be large or run the other way.
MEASUREMENT TYPE: outcome

COMPOUND: Oc1ccc(C2CNCCc3c2cc(O)c(O)c3Cl)cc1 (stereo not drawn)
MEASUREMENT TYPE: outcome
REPORTED VALUE: inactive
--
COMPOUND: O=C(C=Cc1ccc(/C=C/C(=O)Nc2ccc(C3=NCCN3)cc2)cc1)Nc1ccc(C2=NCCN2)cc1
MEASUREMENT TYPE: outcome
REPORTED VALUE: inactive
--
COMPOUND: Nc1ccc(S(=O)(=O)Nc2ccnn2-c2ccccc2)cc1
MEASUREMENT TYPE: outcome
REPORTED VALUE: inactive

---

Assay: Quantitative High-Throughput drug screen in 47 multiple myeloma cell lines against the NCATS MIPE library collection: JIM3_ECACC cell viability assay (AID 1918963; also: nearly all actives have a fitted effect of over 35% in size)
Conditions: JIM3 myeloma viability, CellTiter-Glo ATP, 48 h; series mostly up to 45.8 µM
Source text: PI: Beverly A. Mock Ph.D. Laboratory of Cancer Biology and Genetics, Center for Cancer Research, National Cancer Institute, National Institute of Health, Bethesda, Maryland […] 5; Detector; 425V; Luminescence; Viewlux PerkinElmer. […] 1. […] Briefly, the corresponding myeloma cell lines were screened in 1,536-well plates with 500 cells, 5-uL per well for inhibition of cell viability (assessed by measuring ATP levels with CellTiterGlo). […]
Inconclusive results are not listed. Active and inactive are the calls of the source. The call rests on the fitted dose curve; in most records, active means well fitted cell-killing curve with a large enough effect; inconclusive means small, poorly fitted or top-dose-only effect; inactive means no such curve, though single readings can be large or run the other way.
// allowed return values: 1 = active, -1 = inactive

Record excerpt, results attached:
SMILES: OCCC#Cc1nc(-c2ccc(F)cc2)c(-c2ccncc2)n1CCCc1ccccc1
LABEL CLASS: 1

SMILES: Cc1c(CCOc2ccc(C(=O)O)cc2)c2cc(Cl)ccc2n1C(c1ccccc1)c1ccccc1
LABEL CLASS: -1

SMILES: Cc1csc(NC(=O)c2sc3nc4c(c(C(F)(F)F)c3c2N)CCC4)n1
LABEL CLASS: -1

SMILES: Cc1[nH]c(=O)c(C#N)cc1-c1ccncc1
LABEL CLASS: 1

SMILES: Cc1[nH]c(=O)c(C#N)cc1-c1ccc2nccn2c1
LABEL CLASS: -1

Now look at this entry.
### Prompt # outcome recorded in this test, key = Cc1cc(Nc2nc(N[C@@H](C)c3ncc(F)cn3)ncc2Cl)n[nH]1
### Response 1

---

System: Zika virus NS2B-NS3 protease
Assay: Primary screen GU AMC qHTS for Zika virus inhibitors (AID 1347154); also: nearly all actives have a fitted effect of over 70% in size
Conditions: Zika NS2B-NS3 unlinked protease, AMC fluorogenic substrate; series mostly up to 54.1 µM
Results filed as inconclusive are left out. Calls of active or inactive are those of the source. The call rests on the fitted dose curve; in most records, active means well fitted inhibition curve with a large enough effect; inconclusive means small, poorly fitted or top-dose-only effect; inactive means flat fitted curve, though single readings scatter.
Response enum: active, inactive

Example entries and their recorded answers appear below.
COMPOUND: Nc1nc2c(ncn2COCCO)c(=O)[nH]1
LABEL CLASS: inactive
--
COMPOUND: N#CC[C@H](C1CCCC1)n1cc(-c2ncnc3[nH]ccc23)cn1
LABEL CLASS: active

### Prompt Would you mind telling me which call this test gave CCN(CC)CCCC(C)Nc1ccnc2cc(Cl)ccc12 (stereo not drawn) ?
### Response inactive

---

Assay: Quantitative High-Throughput drug screen in 47 multiple myeloma cell lines against the NCATS MIPE library collection: KMS26_JCRB cell viability assay (AID 1918975); also: nearly all actives have a fitted effect of over 45% in size
Settings: KMS26 myeloma cells viability, CellTiter-Glo ATP, 48 h; series mostly up to 45.8 µM
Records with an inconclusive call do not appear. The source made the active and inactive calls. The call rests on the fitted dose curve; in most records, active means well fitted cell-killing curve with a large enough effect; inconclusive means small, poorly fitted or top-dose-only effect, or effect the other way; inactive means no such curve, though single readings can be large or run the other way.
// classify into y for active, n for inactive

Examples with answers:
COMPOUND: COc1ccc(-c2ccc3c(N4CCOC[C@H]4C)nc(N4CCOC[C@H]4C)nc3n2)cc1CO
LABEL CLASS: y

COMPOUND: OC(CCN1CCCCC1)(c1ccccc1)C1CC2C=CC1C2 (stereo not drawn)
LABEL CLASS: n

Alright, here's another compound for you.
### Prompt // outcome(item) with item = O=c1[nH]c(-c2ccc(C(F)(F)F)cc2)nc2c1CSCC2
### Response y

---

Test: Quantitative High-Throughput drug screen in 47 multiple myeloma cell lines against the NCATS MIPE library collection: XG1_PLB cell viability assay (AID 1919866); also: nearly all actives have a fitted effect of over 35% in size
Conditions: CellTiter-Glo ATP, 48 h; series mostly up to 45.8 µM
Records with an inconclusive call do not appear. Calls of active or inactive are those of the source. The call rests on the fitted dose curve; in most records, active means well fitted cell-killing curve with a large enough effect; inconclusive means small, poorly fitted or top-dose-only effect, or effect the other way; inactive means no such curve, though single readings can be large or run the other way.
Would you mind answering with one of these outcomes? active, inactive

SMILES: Nc1nc2[nH]cc(CCc3ccc(C(=O)N[C@@H](CCC(=O)O)C(=O)O)cc3)c2c(=O)[nH]1
LABEL CLASS: inactive
--
SMILES: CCc1cc(Nc2nccc(-c3c(-c4ccc(OC)c(C(=O)Nc5c(F)cccc5F)c4)nc4ccccn34)n2)c(OC)cc1N1CCC(N2CCN(S(C)(=O)=O)CC2)CC1
LABEL CLASS: active
--
SMILES: CCOc1ccn(-c2ccc(F)cc2)c(=O)c1C(=O)Nc1ccc(Oc2ccnc(N)c2Cl)c(F)c1
LABEL CLASS: active
--
SMILES: C[C@]12CC[C@H](O)CC1=CC[C@@H]1[C@H]2CC[C@]2(C)C(c3cccnc3)=CC[C@H]12
LABEL CLASS: active
--
SMILES: NC(=O)c1cnccn1
LABEL CLASS: inactive

### Prompt What did the test return for N[C@@H]1CONC1=O ?
### Response inactive

### Prompt Further, for O=C(O)[C@@H](c1ccc(OCc2ccc3ccccc3n2)cc1)C1CCCC1 ?
### Response active

Data origin: PubChem BioAssay (NCATS)
